This collection of values is drawn from paper PMC10143822.

pIC50: −log10 of the molar value. Where a SMILES comes first, the peptide text is derived from it. [ ]: non-standard residue; d: D form. NMeF = CN[C@@H](Cc1ccccc1)C(=O)O; 2Thi = N[C@@H](Cc1cccs1)C(=O)O; β3hD = NC(CC(=O)O)CC(=O)O
# ExoI (Escherichia coli, UniProt P04995): pIC50 values follow
testReadout: pIC50

CC[C@H](C)[C@H](NC(=O)[C@H](CC(=O)O)NC(=O)[C@H](CC(=O)O)NC(=O)[C@H](CC(=O)O)NC(=O)[C@H](Cc1ccccc1)NC(=O)[C@H](CC(=O)O)NC(C)=O)C(=O)N1CCC[C@H]1C(=O)N[C@@H](Cc1cccs1)C(=O)O [Thi8] (Ac-DFDDDIP[2Thi]-OH) ... 5.11
CC[C@H](C)[C@H](NC(=O)[C@H](CC(=O)O)NC(=O)[C@H](CC(=O)O)NC(=O)[C@H](CC(=O)O)NC(=O)[C@H](Cc1ccccc1)N(C)C(=O)[C@H](CC(=O)O)NC(C)=O)C(=O)N1CCC[C@H]1C(=O)N[C@@H](Cc1ccccc1)C(=O)O [NM-Phe2] (Ac-D[NMeF]DDDIPF-OH) ... 5.27
CC[C@H](C)[C@H](NC(=O)[C@H](CC(=O)O)NC(=O)[C@H](CC(=O)O)NC(=O)[C@H](CC(=O)O)NC(=O)[C@H](Cc1ccccc1)NC(=O)C[C@H](CC(=O)O)NC(C)=O)C(=O)N1CCC[C@H]1C(=O)N[C@@H](Cc1ccccc1)C(=O)O [β3-Asp1] (Ac-[β3hD]FDDDIPF-OH) ... 5.35
CC(=O)N[C@@H](CC(=O)O)C(=O)N[C@@H](Cc1ccccc1)C(=O)N[C@@H](CC(=O)O)C(=O)N[C@@H](CC(=O)O)C(N)=O [DFDD] (Ac-DFDD-NH2) ... 3.51
